Test system: corn (Zea mays)
Assay: Test B pre-/postemergence plant response
Assay type: in vivo
Settings: Preemergence, 62 g ai/ha; scale 0 to 100
Let's look at some compounds and their measured Plant response rating, Corn.
The answer should be written as a number, with no unit following it.

[
  {
    "compound": "CCc1cc(-c2ccc(C(F)(F)F)cc2)nn1-c1c(OC(=O)OC(C)C)cnn(C)c1=O [Compound 12]",
    "Plant response rating, Corn": 95
  },
  {
    "compound": "Cc1cc(-c2ccc(Cl)cc2)nn1-c1c(OS(=O)(=O)c2cccc3ccccc23)cnn(C)c1=O [Compound 47]",
    "Plant response rating, Corn": 95
  },
  {
    "compound": "Cc1cc(-c2ccc(Cl)cc2)nn1-c1c(OC(=O)CC(C)C)cnn(C)c1=O [Compound 37]",
    "Plant response rating, Corn": 98
  }
]

Alright, here's another compound for you.
QUERY: Quick one: Plant response rating, Corn of Cc1cc(-c2ccc(Br)cc2)nn1-c1c(OC(=O)C2CC2)cnn(C)c1=O [Compound 5] ?
RESULT: 95

###

Test system: velvetleaf (Abutilon theophrasti)
Experiment: Test A pre-/postemergence plant response
Type: in vivo
Settings: Preemergence, 31 g ai/ha; 0 to 100 scale, 0 is no effect, 100 is complete control
Excerpt: […] Plants ranged in height from 2 to 10 cm and were in the one- to two-leaf stage for the postemergence treatment. Treated plants and untreated controls were maintained in a greenhouse for approximately 10 days, after which time all treated plants were compared to untreated controls and visually evaluated for injury. […]
Let's look at some molecules and their measured Plant response rating, Velvetleaf.
The answer should be written as a number, with no unit following it.

[
  {
    "molecule": "Cc1cc(-c2ccc(Cl)cc2)nn1-c1c(OC(=O)N(C)C)cnn(C)c1=O [Compound 64]",
    "observed": 0
  },
  {
    "molecule": "Cc1cc(-c2ccc(Cl)cc2)nn1-c1c(OS(=O)(=O)c2cccc3ccccc23)cnn(C)c1=O [Compound 47]",
    "observed": 0
  },
  {
    "molecule": "Cc1cc(-c2ccc(Cl)cc2)nn1-c1c(OS(=O)(=O)C2CC2)cnn(C)c1=O [Compound 49]",
    "observed": 0
  }
]

Alright, here's another molecule for you.
QUERY: Quick one: Plant response rating, Velvetleaf of Cc1cc(-c2ccc(Cl)cc2)nn1-c1c(OC(=O)c2ccccc2Cl)cnn(C)c1=O [Compound 38] ?
RESULT: 0

###

Let's look at some molecules and their measured Plant response rating, Barnyardgrass.
System: barnyardgrass (Echinochloa crus-galli)
Assay: Test B flooded paddy test plant response
Format: in vivo
Details: Flood (flooded paddy test), 250 g ai/ha; scale 0 to 100, 0 no effect, 100 complete control

Some molecules with known Plant response rating, Barnyardgrass results, for comparison:
[
  {
    "molecule": "Cn1ncc(O)c(-n2nc(-c3ccc(Cl)cc3)cc2C2CC2)c1=O [Compound 45]",
    "measurement_name": "Plant response rating, Barnyardgrass",
    "observed": 65
  },
  {
    "molecule": "CCc1cc(-c2ccc(Cl)cc2)nn1-c1c(O)cnn(C)c1=O [Compound 21]",
    "measurement_name": "Plant response rating, Barnyardgrass",
    "observed": 100
  },
  {
    "molecule": "CCc1cc(-c2ccc(C(F)(F)F)cc2)nn1-c1c(O)c(OC)nn(C)c1=O [Compound 66]",
    "measurement_name": "Plant response rating, Barnyardgrass",
    "observed": 20
  },
  {
    "molecule": "Cc1nn(C)c(=O)c(-n2nc(-c3ccc(Cl)cc3)cc2Cl)c1O [Compound 59]",
    "measurement_name": "Plant response rating, Barnyardgrass",
    "observed": 50
  }
]

Alright, here's another molecule for you.
QUERY: Quick one: Plant response rating, Barnyardgrass of CCCc1cc(-c2ccc(C(F)(F)F)cc2)nn1-c1c(O)cnn(C)c1=O [Compound 72] ?
RESULT: 70
